Where do these numbers come from? They come from patent US6670383B2.

# Test system: M. tuberculosis H37Ra
# ASSAY_COMMENT: MIC and MBC determination using 2-fold dilutions
# Format: cell-based
Where a name gives a salt, the structure may show the parent alone.

| COMPOUND | effect on M. tuberculosis |
| --- | --- |
| C=CCOc1cc2c(c3oc(=O)cc(CCC)c13)C(O)C(C)C(C)O2 (stereo not drawn) [cis-17c] | bactericidal |
| CCCc1cc(=O)oc2c(C(N)CC)c(OC(C)C)cc(OC(C)C)c12 (stereo not shown) [Compound 26c, hydrochloride] | bactericidal |
| CCCc1cc(=O)oc2c3c(c4c(c12)OC(C)(C)C=C4)O[C@H](C)[C@@H](C)C3N (stereo partly shown) | bactericidal |
| CCCc1cc(=O)oc2c(C(N)CC)c(OCCO)c3c(c12)OC(C)(C)C=C3 (stereo not shown) [Compound 45e] | bactericidal |
